Could you please report measured pIC50 for the items listed next?
# system-under-test: recombinant human NaV1.8 stably transfected HEK cells (Homo sapiens)
# Construct: expressed in transfected cells; host or cells: HEK cells, stably transfected
# test: Compound profiling on NaV1.8, human NaV1.8 cell line, SyncroPatch384PE automated patch clamp assay (Example 115, third set of compounds, Table 27)
# Format: cell-based
# condition-label: resting state block (P1 measurement), human NaV1.8 HEK cells, Table 27 (third set of compounds), read-out: P1 IC50
pIC50: −log10 of the molar value.

COc1cc(F)ccc1Oc1nnc(C(F)(F)F)cc1C(=O)Nc1cnnc(C#N)c1 = 5.30 to 6.00
Cc1cc(F)ccc1Oc1nnc(C(F)(F)F)cc1C(=O)Nc1ccn2nnnc2c1 = ≥ 6.70
COc1cc(C#N)ccc1Oc1nnc(C(F)(F)F)cc1C(=O)Nc1cccc(S(C)(=O)=O)c1 = ≥ 6.70
COc1cc(F)ccc1Oc1nnc(C)cc1C(=O)Nc1cccc([S+](C)[O-])c1 (stereo not shown) = < 5.30
Cc1cc(F)ccc1Oc1nnc(C(F)(F)F)cc1C(=O)Nc1ccn2cnnc2c1 = 5.30 to 6.00

Provide pIC50 for all items below, preserving their order.
1. Cc1cc(C#N)ccc1Oc1nnc(C(F)(F)F)cc1C(=O)Nc1cccc(C(N)=O)c1
2. CNC(=O)c1ccc(NC(=O)c2cc(C(F)(F)F)nnc2Oc2ccc(F)cc2OC)cc1
3. Cc1cc(F)ccc1Oc1nnc(C(F)(F)F)cc1C(=O)Nc1ccnnc1

1: 6.30 to 6.70; 2: 6.00 to 6.30; 3: 6.00 to 6.30

Provide pIC50 for all items below, preserving their order.
1. COc1cc(F)ccc1Oc1nnc(C(F)(F)F)cc1C(=O)Nc1cccc(S2(=O)=NCCC2)c1 (stereo not shown)
2. COc1cc(F)ccc1Oc1nnc(C(F)(F)F)cc1C(=O)N[C@H]1CCCN(S(C)(=O)=O)C1
3. CS(=O)(=O)c1cccc(NC(=O)c2cc(C(F)(F)F)nnc2Oc2cc(OC(F)(F)F)ccc2F)c1
4. Cc1ccc(F)cc1Oc1nnc(C(F)(F)F)cc1C(=O)Nc1cccc(S(N)(=O)=O)c1
5. COc1ccc(F)cc1Oc1nnc(C(F)(F)F)cc1C(=O)Nc1cccc(S(C)(=O)=O)c1

["6.30 to 6.70", "5.30 to 6.00", "6.30 to 6.70", "6.00 to 6.30", "6.30 to 6.70"]

Provide pIC50 for all items below, preserving their order.
1. COc1cc(F)ccc1Oc1nnc(C(F)(F)F)cc1C(=O)Nc1cccc(S(C)(=N)=O)c1 (stereo not shown)
2. CCOc1cc(F)ccc1Oc1nnc(C)cc1C(=O)Nc1cccc(S(C)(=N)=O)c1 (stereo not shown)
3. Cc1cc(-c2cn[nH]c2)ccc1Oc1nnc(C(F)(F)F)cc1C(=O)Nc1cccc(S(C)(=O)=O)c1

≥ 6.70
< 5.30
< 5.30

* * *

# system-under-test: recombinant human NaV1.8 stably transfected HEK cells (Homo sapiens)
# Construct: expressed in transfected cells; host or cells: HEK cells, stably transfected
# test: Compound profiling on NaV1.8, human NaV1.8 cell line, SyncroPatch384PE automated patch clamp assay (Example 102, first set of compounds, Table 16)
# Format: cell-based
# condition-label: resting state block (P1 measurement), human NaV1.8 HEK cells, Table 16 (first set of compounds), read-out: P1IC50
pIC50: −log10 of the molar value.
Could you please report measured pIC50 for the items listed next?

Use the examples below as a reference point.
Cc1cc(F)ccc1Oc1ncc(Br)c(C)c1C(=O)Nc1cccc([S@](C)(=N)=O)c1 = ≥ 7.70
CS(=N)(=O)c1cccc(NC(=O)c2cc(C(F)(F)F)cnc2Oc2ccc(OC3CC3)cc2)c1 (stereo not shown) = 6.70 to 7.40
COc1c(Oc2ncc(C#N)cc2C(=O)Nc2cccc(S(C)(=N)=O)c2)ccc(F)c1F (stereo not shown) = 7.40 to 7.70
CO/N=C(\C)c1cccc(NC(=O)c2c(Oc3ccc(C#N)cc3OC)nnc(C(F)(F)F)c2C)c1 = 6.30 to 6.70
COc1cc(C#N)ccc1Oc1nnc(-c2ccc(C)cn2)c(C)c1C(=O)Nc1cccc(S(C)(=N)=O)c1 (stereo not shown) = 6.30 to 6.70
COc1cc(C#N)ccc1Oc1ncc(Br)cc1C(=O)Nc1cccc(S(C)(=N)=O)c1 (stereo not shown) = ≥ 7.70

Pending molecule:
Can you share its pIC50? I mean this molecule: CS(=O)(=O)c1cccc(NC(=O)c2cc(C(F)(F)F)cnc2Oc2ccc3c(c2)CC(=O)N3)c1
6.30 to 6.70

* * *

# system-under-test: recombinant human NaV1.8 stably transfected HEK cells (Homo sapiens, UniProt Q9Y5Y9)
# Construct: expressed in transfected cells; host or cells: HEK cells, stably transfected
# Sequence (Q9Y5Y9 whole entry): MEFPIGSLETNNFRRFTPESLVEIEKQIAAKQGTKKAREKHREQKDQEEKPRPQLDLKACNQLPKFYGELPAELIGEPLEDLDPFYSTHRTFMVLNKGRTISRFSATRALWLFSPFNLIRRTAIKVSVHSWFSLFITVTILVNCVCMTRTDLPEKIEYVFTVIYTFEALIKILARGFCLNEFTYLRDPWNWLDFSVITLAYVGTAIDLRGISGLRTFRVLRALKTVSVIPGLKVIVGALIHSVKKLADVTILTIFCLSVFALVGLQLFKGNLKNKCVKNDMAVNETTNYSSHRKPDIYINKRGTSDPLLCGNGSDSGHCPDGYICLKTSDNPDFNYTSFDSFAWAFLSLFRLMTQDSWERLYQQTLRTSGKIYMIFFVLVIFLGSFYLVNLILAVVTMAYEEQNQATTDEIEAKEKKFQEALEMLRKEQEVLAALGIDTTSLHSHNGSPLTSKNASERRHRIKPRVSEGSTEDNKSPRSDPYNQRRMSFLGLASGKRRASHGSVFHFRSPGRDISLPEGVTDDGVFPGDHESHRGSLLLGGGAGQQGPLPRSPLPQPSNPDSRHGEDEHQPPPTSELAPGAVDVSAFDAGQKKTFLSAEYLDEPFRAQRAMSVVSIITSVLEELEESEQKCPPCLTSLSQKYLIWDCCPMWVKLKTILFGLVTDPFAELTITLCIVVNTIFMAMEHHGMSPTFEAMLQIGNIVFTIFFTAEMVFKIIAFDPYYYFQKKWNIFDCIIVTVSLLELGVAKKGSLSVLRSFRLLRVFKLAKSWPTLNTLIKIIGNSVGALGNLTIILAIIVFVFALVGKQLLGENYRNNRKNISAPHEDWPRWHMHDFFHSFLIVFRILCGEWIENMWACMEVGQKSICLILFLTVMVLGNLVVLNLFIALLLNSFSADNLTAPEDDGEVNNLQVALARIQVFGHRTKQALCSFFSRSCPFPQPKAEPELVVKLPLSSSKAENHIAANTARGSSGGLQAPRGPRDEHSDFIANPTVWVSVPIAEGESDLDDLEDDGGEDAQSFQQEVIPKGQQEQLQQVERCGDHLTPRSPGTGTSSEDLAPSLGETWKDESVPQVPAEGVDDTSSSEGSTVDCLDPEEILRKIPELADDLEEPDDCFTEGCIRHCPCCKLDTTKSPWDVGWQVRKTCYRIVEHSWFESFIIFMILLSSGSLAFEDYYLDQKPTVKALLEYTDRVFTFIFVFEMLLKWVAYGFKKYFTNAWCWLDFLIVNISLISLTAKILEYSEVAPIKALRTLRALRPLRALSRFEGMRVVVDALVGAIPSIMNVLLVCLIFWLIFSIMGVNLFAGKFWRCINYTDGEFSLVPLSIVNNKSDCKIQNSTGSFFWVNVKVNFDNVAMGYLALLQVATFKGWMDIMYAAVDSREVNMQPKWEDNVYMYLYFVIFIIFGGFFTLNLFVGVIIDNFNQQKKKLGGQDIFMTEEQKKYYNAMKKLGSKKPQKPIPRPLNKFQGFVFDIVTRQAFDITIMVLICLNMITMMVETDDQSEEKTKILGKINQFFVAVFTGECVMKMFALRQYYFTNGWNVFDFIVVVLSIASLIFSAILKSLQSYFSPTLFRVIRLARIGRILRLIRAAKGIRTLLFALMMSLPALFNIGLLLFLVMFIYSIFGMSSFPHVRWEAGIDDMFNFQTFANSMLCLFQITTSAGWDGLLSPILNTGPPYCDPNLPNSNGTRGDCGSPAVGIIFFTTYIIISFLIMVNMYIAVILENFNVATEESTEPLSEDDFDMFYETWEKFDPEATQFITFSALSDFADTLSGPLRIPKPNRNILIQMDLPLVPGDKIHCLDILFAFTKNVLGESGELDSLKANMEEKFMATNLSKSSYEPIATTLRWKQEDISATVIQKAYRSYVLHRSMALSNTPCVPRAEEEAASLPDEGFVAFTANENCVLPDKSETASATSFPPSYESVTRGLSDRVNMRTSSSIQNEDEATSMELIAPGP
# test: Compound profiling on NaV1.8, human NaV1.8 cell line, SyncroPatch384PE automated patch clamp assay (Example 102, first set of compounds, Table 16)
# Format: cell-based
# condition-label: inactivated state block (P2 measurement), human NaV1.8 HEK cells, Table 16 (first set of compounds), read-out: P2IC50
parameter: IC50

Use the examples below as a reference point.
COc1cc(C#N)ccc1Oc1nnc(-c2ccc(C(F)F)cc2)c(C)c1C(=O)Nc1cccc([S@](C)(=N)=O)c1 [Compound 1534] = 20 to 40 nM
COc1ncc(Oc2ncc(C(F)(F)F)cc2C(=O)Nc2cccc(C(N)=O)c2)cc1F [Compound 1698] = 200 to 500 nM
COc1cc(C#N)ccc1Oc1nnc(C2=CCN(C(C)=O)CC2)c(C)c1C(=O)Nc1cccc(S(C)(=N)=O)c1 (stereo not shown) [Compound 1554] = 200 to 500 nM
CS(=N)(=O)c1cccc(NC(=O)c2cc(C(F)(F)F)cnc2Oc2ccc(OC(F)F)nc2)c1 (stereo not shown) [Compound 1646] = 40 to 200 nM
COc1cc(C#N)ccc1Oc1nnc(C(F)(F)F)c(C)c1C(=O)Nc1cccc(C#N)c1 [Compound 1548] = 20 to 40 nM
COc1cc(C#N)ccc1Oc1ncc(C23CCOCC2C3)cc1C(=O)Nc1cccc(S(C)(=N)=O)c1 (stereo not shown) [Compound 1725] = 200 to 500 nM

Can you share its IC50? I mean this compound: Cc1nn(C)c(C)c1Oc1ncc(C(F)(F)F)cc1C(=O)Nc1cccc(S(C)(=O)=O)c1 [Compound 1611]
200 to 500 nM

* * *

# system-under-test: recombinant human NaV1.8 stably transfected HEK cells (Homo sapiens, UniProt Q9Y5Y9)
# Construct: expressed in transfected cells; host or cells: HEK cells, stably transfected
# test: Compound profiling on NaV1.8, human NaV1.8 cell line, SyncroPatch384PE automated patch clamp assay (Example 102, first set of compounds, Table 16)
# Assay type: cell-based
# condition-label: inactivated state block (P2 measurement), human NaV1.8 HEK cells, Table 16 (first set of compounds), read-out: P2IC50
pIC50: −log10 of the molar value.
parameter: pIC50

Use the examples below as a reference point.
CS(=O)(=O)c1cccc(NC(=O)c2cc(C(F)(F)F)cnc2Oc2cnc(Cl)c3ccccc23)c1 = 6.30 to 6.70
COc1cc(C#N)ccc1Oc1nnc(C(F)(F)F)c(C)c1C(=O)Nc1cccc(C(=O)N2CCNCC2)c1 = 6.70 to 7.40
COc1cc(C#N)ccc1Oc1nnc(C2CC2(F)F)c(C)c1C(=O)Nc1cccc([S@@](C)(=N)=O)c1 (stereo partly shown) = 6.70 to 7.40
COc1c(Oc2ncc(C(F)(F)F)cc2C(=O)Nc2cccc(S(C)(=N)=O)c2)ccc(F)c1Cl (stereo not shown) = ≥ 7.70
COc1cc(C#N)cc(Oc2ncc(C(F)(F)F)cc2C(=O)Nc2cccc(S(C)(=N)=O)c2)c1 (stereo not shown) = 6.30 to 6.70
Cc1c(Oc2nnc(C(F)(F)F)c(C)c2C(=O)Nc2cccc(S(C)(=O)=O)c2)ccc(Cl)c1F = ≥ 7.70

Pending compound:
Find pIC50 (recombinant human NaV1.8 stably transfected HEK cells (Homo sapiens, UniProt Q9Y5Y9)) for the entry COC(=O)C12CC(NC(=O)c3cc(C(F)(F)F)cnc3Oc3ccc(F)c(F)c3OC)(C1)C2
6.30 to 6.70

* * *

# system-under-test: recombinant human NaV1.8 stably transfected HEK cells (Homo sapiens)
# Construct: expressed in transfected cells; host or cells: HEK cells, stably transfected
# test: Compound profiling on NaV1.8, human NaV1.8 cell line, SyncroPatch384PE automated patch clamp assay (Example 115, third set of compounds, Table 27)
# Assay type: cell-based
# condition-label: inactivated state block (P2 measurement), human NaV1.8 HEK cells, Table 27 (third set of compounds), read-out: P2 IC50
pIC50: −log10 of the molar value.
Could you please report measured pIC50 for the items listed next?

Use the examples below as a reference point.
Cc1cc(F)ccc1Oc1nnc(C(F)(F)F)cc1C(=O)Nc1ccn2cnnc2c1 = 5.30 to 6.00
CS(=O)(=O)c1cccc(NC(=O)c2cc(C(F)(F)F)nnc2Oc2cccc(OC(F)(F)F)c2)c1 = < 5.30
NS(=O)(=O)c1cccc(NC(=O)c2cc(C(F)(F)F)nnc2Oc2cc(F)ccc2Cl)c1 = ≥ 6.70

Provide pIC50 for all items below, preserving their order.
1. COc1cc(NC(=O)c2cc(C(F)(F)F)nnc2Oc2ccc(F)cc2Cl)ccn1
2. COc1cc(C#N)ccc1Oc1nnc(C(F)(F)F)cc1C(=O)Nc1cccc(S(N)(=O)=O)c1
3. Cc1cc(F)ccc1Oc1nnc(C(F)(F)F)cc1C(=O)Nc1ccnnc1
4. Cc1cc(C2CC2)ccc1Oc1nnc(C(F)(F)F)cc1C(=O)Nc1cccc(S(C)(=O)=O)c1
5. Cc1cc(F)ccc1Oc1nnc(C(F)(F)F)cc1C(=O)Nc1cccc(NS(C)(=O)=O)c1

["< 5.30", "≥ 6.70", "6.30 to 6.70", "≥ 6.70", "5.30 to 6.00"]
